- targetOrSystem: T1, CH505.TF mutant gp120 M8 (HIV-1)
- T1 construct: domain: gp120
- assayExplanation: ELISA
endpointLabel: LogAUC

binder | valueObserved
CH241 (antibody, V domains shown) VH: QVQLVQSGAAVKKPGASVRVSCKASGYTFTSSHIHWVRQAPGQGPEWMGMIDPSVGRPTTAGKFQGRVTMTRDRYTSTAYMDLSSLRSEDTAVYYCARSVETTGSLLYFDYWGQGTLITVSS VL: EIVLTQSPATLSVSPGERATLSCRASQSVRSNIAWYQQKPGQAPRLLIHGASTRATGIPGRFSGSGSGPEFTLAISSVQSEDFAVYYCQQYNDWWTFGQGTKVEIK | 2.18
CH493 (antibody, V domains shown, also called CH235.9; DH493) VH: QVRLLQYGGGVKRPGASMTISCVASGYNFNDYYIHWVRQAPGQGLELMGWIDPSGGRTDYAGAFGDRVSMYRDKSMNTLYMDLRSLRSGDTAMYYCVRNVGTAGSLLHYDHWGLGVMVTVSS VL: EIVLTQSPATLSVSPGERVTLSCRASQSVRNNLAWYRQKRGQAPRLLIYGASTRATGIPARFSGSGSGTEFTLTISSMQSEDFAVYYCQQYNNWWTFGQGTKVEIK | 4.36
